Molecular target: recombinant human DAO (diamine oxidase) (Homo sapiens, UniProt P19801)
Construct: purchased R&D systems
Sequence (P19801 20-751): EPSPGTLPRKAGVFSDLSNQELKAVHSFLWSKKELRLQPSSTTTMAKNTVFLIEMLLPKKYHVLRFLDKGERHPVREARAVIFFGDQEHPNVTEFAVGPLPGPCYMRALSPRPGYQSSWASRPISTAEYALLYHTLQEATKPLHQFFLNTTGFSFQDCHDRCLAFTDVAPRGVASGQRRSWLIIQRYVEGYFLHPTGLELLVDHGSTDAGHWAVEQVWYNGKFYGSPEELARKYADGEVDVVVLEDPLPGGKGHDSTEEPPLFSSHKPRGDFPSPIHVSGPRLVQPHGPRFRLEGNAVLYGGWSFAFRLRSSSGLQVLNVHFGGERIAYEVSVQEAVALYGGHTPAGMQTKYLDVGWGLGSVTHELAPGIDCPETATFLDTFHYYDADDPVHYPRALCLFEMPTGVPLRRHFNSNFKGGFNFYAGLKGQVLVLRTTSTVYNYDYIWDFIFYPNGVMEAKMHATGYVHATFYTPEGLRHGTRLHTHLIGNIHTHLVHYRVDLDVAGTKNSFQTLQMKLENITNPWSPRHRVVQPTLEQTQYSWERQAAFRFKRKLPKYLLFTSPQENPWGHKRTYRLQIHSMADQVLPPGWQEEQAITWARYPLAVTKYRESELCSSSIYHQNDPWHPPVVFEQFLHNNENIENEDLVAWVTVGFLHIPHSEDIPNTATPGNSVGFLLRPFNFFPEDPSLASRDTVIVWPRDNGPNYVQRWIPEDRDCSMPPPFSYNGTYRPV
Test: Activity on recombinant human DAO, method similar to the VAP-1 assay
Assay type: biochemical
Conditions: substrate 1 mM putrescine; read-out: Inhibitory Activity (IC50, nM) DAO
Structures can show the parent of a compound that is named as a salt.
Reported IC50 values follow for various compounds
MEASUREMENT_TYPE: IC50 (nM)

> print(dat)
                                   compound                       experimental.system  measurement.type  test.result
1  NC/C(=C\F)Cn1ncn(Cc2ccc(-c3ccc4c(c3)CNC4=O)s2)c1=O [Example 68, hydrochloride]  recombinant human DAO (diamine oxidase) (Homo sapiens, UniProt P19801)              IC50         1000
2  CNC(=O)c1ccc(-c2ccc(Cn3cnn(C/C(=C/F)CN)c3=O)s2)cc1  recombinant human DAO (diamine oxidase) (Homo sapiens, UniProt P19801)              IC50         1100
3  NC/C(=C\F)Cn1ncn(Cc2ccc(-c3cc(F)c4c(c3)NC(=O)CO4)s2)c1=O [Example 94, hydrochloride]  recombinant human DAO (diamine oxidase) (Homo sapiens, UniProt P19801)              IC50          160
4  NC/C(=C\F)Cn1ncn(Cc2ccc(/C=C/c3ccc(O)cc3)s2)c1=O [Example 116, hydrochloride]  recombinant human DAO (diamine oxidase) (Homo sapiens, UniProt P19801)              IC50         1700
